B1: Zinc finger homeobox protein 3, residues 2147 to 2202; numbered along this chain, Q15911 (parent)
chain: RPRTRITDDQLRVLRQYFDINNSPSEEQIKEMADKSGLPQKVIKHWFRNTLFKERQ

Variants of: B1
EXPERIMENT NOTES: abundance fitness (aPCA) (normalised: wild type 0, dead -1); higher = more abundant; growth selection in yeast, the domain comes from the species named
CONDITION CONTEXT: Homo sapiens
Assign class by abundance fitness: not lower than -0.4 means t; lower than -0.4 means f.

These recorded examples may help you get a feel for the data.
>>> label("G37W")
"f"
>>> label("P39W")
"f"
>>> label("R3C")
"f"
>>> label("S23A")
"t"

In: Hello, I need to know if E31I has measured abundance fitness not below -0.4. Thanks!
Out: t

In: Hello, I need to know if Q40I has measured abundance fitness not below -0.4. Thanks!
Out: t

In: Hello, I need to know if Q10D has measured abundance fitness not below -0.4. Thanks!
Out: t

In: Hello, I need to know if D9I has measured abundance fitness not below -0.4. Thanks!
Out: t

In: Hello, I need to know if D19I has measured abundance fitness not below -0.4. Thanks!
Out: t

In: Hello, I need to know if P39R has measured abundance fitness not below -0.4. Thanks!
Out: t

In: Hello, I need to know if R1I has measured abundance fitness not below -0.4. Thanks!
Out: f

In: Hello, I need to know if P2E has measured abundance fitness not below -0.4. Thanks!
Out: t

Measured values drawn from the Human Domainome abundance scans (Beltran et al. 2025) for this set.
